# target system: T1, Flt-IgG (human, UniProt P17948 27-758, limits assumed)
# T1 construct: Only described as 'a chimeric Flt-human Fc molecule'; captured by rabbit F(ab')2 to human IgG Fc; also called chimeric Flt-human Fc molecule; not shown: human IgG Fc
# T1 sequence (P17948 27-758 limits assumed): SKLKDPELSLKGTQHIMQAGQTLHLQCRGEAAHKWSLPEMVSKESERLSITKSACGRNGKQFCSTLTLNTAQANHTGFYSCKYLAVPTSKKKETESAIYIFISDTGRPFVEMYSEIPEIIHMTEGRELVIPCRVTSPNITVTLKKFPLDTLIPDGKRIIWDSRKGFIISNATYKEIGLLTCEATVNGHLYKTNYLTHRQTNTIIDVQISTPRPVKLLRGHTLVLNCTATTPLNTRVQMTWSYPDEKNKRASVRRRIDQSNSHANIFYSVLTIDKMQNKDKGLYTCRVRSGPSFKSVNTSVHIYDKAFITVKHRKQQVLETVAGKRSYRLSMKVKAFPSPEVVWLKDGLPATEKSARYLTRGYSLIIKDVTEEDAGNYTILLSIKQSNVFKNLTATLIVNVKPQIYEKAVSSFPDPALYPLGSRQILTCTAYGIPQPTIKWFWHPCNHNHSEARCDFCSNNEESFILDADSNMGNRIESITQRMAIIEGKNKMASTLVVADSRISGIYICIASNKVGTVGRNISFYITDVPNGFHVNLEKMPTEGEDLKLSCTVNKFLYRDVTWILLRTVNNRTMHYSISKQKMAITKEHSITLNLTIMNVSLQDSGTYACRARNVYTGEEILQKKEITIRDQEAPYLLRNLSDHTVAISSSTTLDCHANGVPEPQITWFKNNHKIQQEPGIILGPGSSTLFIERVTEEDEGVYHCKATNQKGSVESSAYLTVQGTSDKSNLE
# test method notes: competition ELISA, biotinylated native VEGF as tracer, Flt-IgG captured by anti-human Fc
measured attribute: IC50 (nM)

# binder, measured attribute, unit symbol, experimental result
records = [
    ("LK-VRB-4s (ligand) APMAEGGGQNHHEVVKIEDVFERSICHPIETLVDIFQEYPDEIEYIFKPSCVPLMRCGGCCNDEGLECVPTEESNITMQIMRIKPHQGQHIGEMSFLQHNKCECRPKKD", "IC50", "nM", 100),
    ("LK-VRB-3s (ligand) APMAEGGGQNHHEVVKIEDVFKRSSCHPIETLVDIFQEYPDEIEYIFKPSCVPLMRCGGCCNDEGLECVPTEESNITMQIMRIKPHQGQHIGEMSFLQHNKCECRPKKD", "IC50", "nM", 170),
    ("native VEGF (8-109) (ligand) GQNHHEVVKFMDVYQRSYCHPIETLVDIFQEYPDEIEYIFKPSCVPLMRCGGCCNDEGLECVPTEESNITMQIMRIKPHQGQHIGEMSFLQHNKCECRPKKD", "IC50", "nM", 0.42),
]
